Attribution: patent US20220098591

# subject_of_test: VEGF-A121 (Homo sapiens, UniProt P15692 SEQ:1-121)
# Sequence (P15692 other isoform, or with tags, fused parts or gaps): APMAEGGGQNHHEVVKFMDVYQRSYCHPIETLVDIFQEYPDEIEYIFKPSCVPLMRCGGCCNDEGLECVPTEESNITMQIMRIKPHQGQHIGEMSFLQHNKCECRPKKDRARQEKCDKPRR
# protocol_description: competition; TR-FRET
# test_conditions: tags: glycan-biotinylated for SPR/FRET/AlphaLISA; Acro BioSystems, Biolegend; chain copies: 2 (stated)
assay_endpoint: binding result

- AGGCCGACCCGCGCGGAGGGGUUUCAUUACCCCGUUUGUCGGCUU (ssRNA, all G 2'-F; A,C,U 2'-OMe; Sp3 joins the two parts; 5' C6NH2; 3' idT) [Aptamer 187]: binds
- AGGCCGUACCGCGCGGAGGGGUUUCAUUAUCCCGUUUUACGGCUU (ssRNA, all G 2'-F; A,C,U 2'-OMe; Sp3 joins the two parts; 5' C6NH2; 3' idT) [Aptamer 139]: binds
- AGGCCGCACCGCGCGGAGGGGUUUCAUUAUCCCGUUUUGCGGCUU (ssRNA, all G 2'-F; A,C,U 2'-OMe; Sp3 joins the two parts; 5' C6NH2; 3' idT) [Aptamer 143]: binds
- AGGCCGAUCCGCGCGGAGGGGUUUCAUUAUCCCGUUUAUCGGCUU (ssRNA, all G 2'-F; A,C,U 2'-OMe; Sp3 joins the two parts; 5' C6NH2; 3' idT) [Aptamer 138]: binds
- AGGCCGUCCCGCGCGGAGGGGUUUCAUUAUCCCGUUUGACGGCUU (ssRNA, all G 2'-F; A,C,U 2'-OMe; Sp3 joins the two parts; 5' C6NH2; 3' idT) [Aptamer 142]: binds
- AGGCCGAACCGCGCGGAGGGGUUUCAUUAUCCCGUUUUUCGGCUU (ssRNA, all G 2'-F; A,C,U 2'-OMe; Sp3 joins the two parts; 5' C6NH2; 3' idT) [Aptamer 137]: binds
- CGACCCGCGCGGAGGGGUUUCAUUAUCCCGUUUGUCG (ssRNA, G 2'-F except 2'-OMe-G as X in CXAC-Sp3-CCGCGCGGAGGGXUUUCAUUAUCCCGUUUXUCX; A,C,U 2'-OMe; Sp3 joins the two parts; 5' C6NH2; 3' idT) [Aptamer 234]: binds
- AGGCCGCUCCGCGCGGAGGGGUUUCAUUAUCCCGUUUAGCGGCUU (ssRNA, all G 2'-F; A,C,U 2'-OMe; Sp3 joins the two parts; 5' C6NH2; 3' idT) [Aptamer 144]: binds
